These entries and their values trace back to PubChem BioAssay AID248.

// reported T/C per item
Tested on: L1210 leukemia ip in BDF1 mice, survival T/C
test: NCI In Vivo Anticancer Drug Screen. Data for tumor model L1210 Leukemia (intraperitoneal) in B6D2F1 (BDF1) mice
assay_conditions: endpoint: mean survival time; dose: 200.0 mg/kg/injection; schedule: Q04DX003 (ip); vehicle: saline with Tween-80; higher = longer survival
Inconclusive results and toxic doses are left out.

Look over these answered cases.
molecule: CCNC(C)(C)C(SS(=O)(=O)O)c1ccc(Cl)s1 (stereo not drawn)
experimental_target: L1210 leukemia ip in BDF1 mice, survival T/C
T/C: 96 % of control
//
molecule: C/C(Cc1ccccc1)=N/N(C)C
experimental_target: L1210 leukemia ip in BDF1 mice, survival T/C
T/C: 95 % of control
//
molecule: O=C(CCBr)NCNC(=O)CCBr
experimental_target: L1210 leukemia ip in BDF1 mice, survival T/C
T/C: 117 % of control

Noted for CC(C)N(SSN(C(C)C)C(C)C)C(C)C : its T/C reads 100 % of control

Noted for CC(C)N(C(=O)c1ccc(C(=O)N(c2ccccc2)C(C)C)cc1)c1ccccc1 : its T/C reads 94 % of control

Noted for CNc1c(Cl)c(Cl)cc(Cl)c1Cl : its T/C reads 114 % of control

Noted for NCCc1cnc(N=Nc2ccc(S(N)(=O)=O)cc2)[nH]1 : its T/C reads 96 % of control

Noted for O=c1[nH]c(=S)n2ncnc2[nH]1 : its T/C reads 102 % of control

###

Tested on: L1210 leukemia ip in BDF1 mice, survival T/C
test: NCI In Vivo Anticancer Drug Screen. Data for tumor model L1210 Leukemia (intraperitoneal) in B6D2F1 (BDF1) mice
assay_conditions: endpoint: mean survival time; dose: 400.0 mg/kg/injection; schedule: Q01DX001 (ip); vehicle: Klucel (hydroxypropylcellulose) (HPC); higher = longer survival
Inconclusive results and toxic doses are left out.
metric: T/C

# T/C measured on L1210 leukemia ip in BDF1 mice, survival T/C for item O=C1c2ccccc2CC(Br)c2ccccc21 (configuration not stated) = 100 % of control

###

Test system: L1210 leukemia ip in BDF1 mice, survival T/C
test: NCI In Vivo Anticancer Drug Screen. Data for tumor model L1210 Leukemia (intraperitoneal) in B6D2F1 (BDF1) mice
assay_conditions: endpoint: mean survival time; dose: 50.0 mg/kg/injection; schedule: Q04DX003 (ip); vehicle: saline; higher = longer survival
Toxic doses and inconclusive results are not listed.
metric: T/C

molecule: O=C(C[n+]1cccc(CO)c1)c1ccccc1
experimental_target: L1210 leukemia ip in BDF1 mice, survival T/C
T/C: 100 % of control

molecule: C#CC(C)(C)OCC(CCl)OC(N)=O (stereo unspecified)
experimental_target: L1210 leukemia ip in BDF1 mice, survival T/C
T/C: 98 % of control

molecule: CCN1CCC2CN(C)CCN2C1=S (stereo unspecified)
experimental_target: L1210 leukemia ip in BDF1 mice, survival T/C
T/C: 105 % of control

molecule: O=C(CCCN1CCC2(CC1)C(=O)NCN2c1ccccc1)c1ccc(F)cc1
experimental_target: L1210 leukemia ip in BDF1 mice, survival T/C
T/C: 120 % of control

# T/C measured on L1210 leukemia ip in BDF1 mice, survival T/C for item CCCNCCCN = 101 % of control

# T/C measured on L1210 leukemia ip in BDF1 mice, survival T/C for item FC(F)(F)C(Cl)Br (stereo unspecified) = 104 % of control

###

System: L1210 leukemia ip in BDF1 mice, survival T/C
test: NCI In Vivo Anticancer Drug Screen. Data for tumor model L1210 Leukemia (intraperitoneal) in B6D2F1 (BDF1) mice
assay_conditions: endpoint: mean survival time; dose: 400.0 mg/kg/injection; schedule: Q01DX001 (ip); vehicle: Klucel (hydroxypropylcellulose) (HPC); higher = longer survival
Toxic doses and inconclusive results are not listed.
// reported T/C per item

compound: Cc1ccccc1N(C)C(=S)c1ccc(Cl)cc1
experimental_target: L1210 leukemia ip in BDF1 mice, survival T/C
T/C: 110 % of control
--
compound: CC1=CC2(C)Cc3cc(C)cc(C)c3S(=O)(=O)C2C(C(=O)O)=C1 (configuration not stated)
experimental_target: L1210 leukemia ip in BDF1 mice, survival T/C
T/C: 96 % of control
--
compound: CCOC(=O)C1NC(=O)C(C(=O)OCC)C1C(C)C (configuration not stated)
experimental_target: L1210 leukemia ip in BDF1 mice, survival T/C
T/C: 109 % of control
--
compound: O=C(O)C(c1ccccc1)c1ccccc1
experimental_target: L1210 leukemia ip in BDF1 mice, survival T/C
T/C: 109 % of control
--
compound: O=C(O)CC1Sc2ccccc2NC1=O (configuration not stated)
experimental_target: L1210 leukemia ip in BDF1 mice, survival T/C
T/C: 105 % of control

# T/C measured on L1210 leukemia ip in BDF1 mice, survival T/C for item O=C(Nc1ccccc1C(F)(F)F)OCCN1CCNC1=S = 104 % of control

# T/C measured on L1210 leukemia ip in BDF1 mice, survival T/C for item COC(=O)C(CCC#N)(CCC#N)C(C)=O = 89 % of control

# T/C measured on L1210 leukemia ip in BDF1 mice, survival T/C for item COC(=O)C1CCC2C3CCC4CC(O)CCC4(C)C3CCC12C (configuration not stated) = 95 % of control

# T/C measured on L1210 leukemia ip in BDF1 mice, survival T/C for item Oc1ccc2[nH]c3c(c2c1)C[P+](Cc1cccc2ccccc12)(c1ccccc1)CC3 (configuration not stated) = 96 % of control

# T/C measured on L1210 leukemia ip in BDF1 mice, survival T/C for item COC(=O)c1cocc1C(=O)N1Cc2cc3ccccc3nc2C1 = 94 % of control

# T/C measured on L1210 leukemia ip in BDF1 mice, survival T/C for item Cc1ccc(NNS(=O)(=O)c2cccc([N+](=O)[O-])c2)c(Br)c1 = 100 % of control

# T/C measured on L1210 leukemia ip in BDF1 mice, survival T/C for item c1ccc2c(c1)ccc1cc3c(ccc4ccccc43)cc12 = 109 % of control

###

System: L1210 leukemia ip in BDF1 mice, survival T/C
test: NCI In Vivo Anticancer Drug Screen. Data for tumor model L1210 Leukemia (intraperitoneal) in B6D2F1 (BDF1) mice
assay_conditions: endpoint: mean survival time; dose: 100.0 mg/kg/injection; schedule: Q01DX001 (ip); vehicle: saline; higher = longer survival
Experimental: The antitumor activity of compounds was measured in mice bearing transplantable tumors. Survival or tumor size were measured and the results are expressed as the measurement made in the treated group (T) divided by the measurement made in the vehicle treated control group (C). The tumor model used in this assay is L1210 Leukemia (intraperitoneal) in B6D2F1 (BDF1) mice
Inconclusive results and toxic doses are left out.
metric: T/C

Look over these answered cases.
compound: NCc1nc(C(=O)O)cs1
T/C: 110 % of control
--
compound: C=C1C2CCC3(C)C(c4ccoc4)OC(=O)CC13OC1CC(=O)C(C)(C)C(CC(=O)OC)C12C (configuration not stated)
T/C: 97 % of control
--
compound: O=C(CC(=O)C(F)(F)F)c1csc2ccccc12
T/C: 95 % of control
--
compound: N#Cc1c(-c2ccc(Cl)cc2)n(O)c2ccccc12
T/C: 96 % of control

Noted for CCOC(=O)C(N)CCl (configuration not stated) : its T/C reads 97 % of control

Noted for Cc1ccc(CN(C)C)c(C(O)c2ccccc2)c1 (configuration not stated) : its T/C reads 96 % of control

Noted for CCOC(=O)Nc1cc(NC(C)CCCN(CC)CC)c2nc(-c3ccccc3)c(-c3ccccc3)nc2n1 (configuration not stated) : its T/C reads 90 % of control

###

Test system: L1210 leukemia ip in BDF1 mice, survival T/C
test: NCI In Vivo Anticancer Drug Screen. Data for tumor model L1210 Leukemia (intraperitoneal) in B6D2F1 (BDF1) mice
assay_conditions: endpoint: mean survival time; dose: 100.0 mg/kg/injection; schedule: Q04DX002 (ip); vehicle: Klucel (hydroxypropylcellulose) (HPC); higher = longer survival
Toxic doses and inconclusive results are not listed.
metric: T/C

Look over these answered cases.
molecule: N#C/C(=C\c1cccc2ccccc12)c1ccccc1
T/C: 95 % of control

molecule: CC(C)=CCC1(CC=C(C)C)C(=O)N(c2ccccc2)N(c2ccccc2)C1=O
T/C: 101 % of control

molecule: O=c1c2ccccc2[nH]c2ncccc12
T/C: 96 % of control

molecule: CCCCS(=O)(=O)N1CCC(C)CC1
T/C: 87 % of control

molecule: CC(c1ccccc1)n1cncc1C(=O)N1CCOCC1 (stereo not given)
T/C: 104 % of control

Noted for Cc1ccc(NC(=O)c2ccco2)cc1Cl : its T/C reads 102 % of control

Noted for CCCCCCC(=O)N1CCCC(C)C1 (stereo not given) : its T/C reads 98 % of control

Noted for Nc1nc2n(n1)C(=O)C(=O)N2 : its T/C reads 101 % of control

Noted for O=C(O)c1cc(Cl)cc(F)c1Cl : its T/C reads 101 % of control

Noted for CC1(C)C=CN(c2ccccc2)C(=O)O1 : its T/C reads 94 % of control
